# literature pull: Aromatase (Homo sapiens, UniProt P11511) pKi
Biological target: Aromatase (Homo sapiens, UniProt P11511)
Sequence (P11511 whole entry): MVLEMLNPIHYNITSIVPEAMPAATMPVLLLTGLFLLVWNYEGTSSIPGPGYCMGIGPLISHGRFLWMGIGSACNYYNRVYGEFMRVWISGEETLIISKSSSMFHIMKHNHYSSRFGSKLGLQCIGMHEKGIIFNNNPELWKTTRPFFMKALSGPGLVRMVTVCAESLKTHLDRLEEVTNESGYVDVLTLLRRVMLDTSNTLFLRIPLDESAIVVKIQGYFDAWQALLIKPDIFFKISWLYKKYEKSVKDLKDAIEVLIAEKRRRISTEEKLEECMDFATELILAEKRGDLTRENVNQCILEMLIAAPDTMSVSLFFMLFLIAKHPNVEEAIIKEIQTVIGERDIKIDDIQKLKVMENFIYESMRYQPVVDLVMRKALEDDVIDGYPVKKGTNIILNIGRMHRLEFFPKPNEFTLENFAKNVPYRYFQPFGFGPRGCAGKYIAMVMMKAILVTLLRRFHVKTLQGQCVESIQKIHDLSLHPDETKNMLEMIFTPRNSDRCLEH
pKi: −log10 of the molar value.
RECORDED METRIC: pKi

[[record]]
molecule = "Brc1ccc(-c2csc(-c3cccnc3)n2)cn1"
recorded_metric = "pKi"
result_value = 5.83

[[record]]
molecule = "Clc1ccc(/C(=C/c2ccccc2)Cn2ccnn2)cc1"
recorded_metric = "pKi"
result_value = 7.24

[[record]]
molecule = "CC(=O)O[C@@H](c1ccccc1)[C@@H](Cn1ccnn1)c1ccc(Br)cc1"
recorded_metric = "pKi"
result_value = 6.63

[[record]]
molecule = "O[C@@H](c1ccccc1)[C@H](Cn1ccnn1)c1ccc(Br)cc1"
recorded_metric = "pKi"
result_value = 6.08

[[record]]
molecule = "Brc1ccc(-c2csc(-c3ccncc3)n2)cn1"
recorded_metric = "pKi"
result_value = 6.55

[[record]]
molecule = "C(=C(\\Cn1cncn1)c1ccccc1)/c1ccccc1"
recorded_metric = "pKi"
result_value = 7.10

[[record]]
molecule = "c1ccc(CC(Cn2ccnn2)c2ccccc2)cc1 (stereo not given)"
recorded_metric = "pKi"
result_value = 6.54

[[record]]
molecule = "C(=C(/Cn1cncn1)c1ccccc1)/c1ccccc1"
recorded_metric = "pKi"
result_value = 7.49

[[record]]
molecule = "COCO[C@@H](c1ccccc1)[C@H](Cn1ccnn1)c1ccc(Br)cc1"
recorded_metric = "pKi"
result_value = 7.70

[[record]]
molecule = "Cc1nc2c(cc1C#N)C(Nc1ccc(Cl)cc1)Oc1ccc([N+](=O)[O-])cc1-2 (stereo not given)"
recorded_metric = "pKi"
result_value = 6.41


====

Sequence of the target: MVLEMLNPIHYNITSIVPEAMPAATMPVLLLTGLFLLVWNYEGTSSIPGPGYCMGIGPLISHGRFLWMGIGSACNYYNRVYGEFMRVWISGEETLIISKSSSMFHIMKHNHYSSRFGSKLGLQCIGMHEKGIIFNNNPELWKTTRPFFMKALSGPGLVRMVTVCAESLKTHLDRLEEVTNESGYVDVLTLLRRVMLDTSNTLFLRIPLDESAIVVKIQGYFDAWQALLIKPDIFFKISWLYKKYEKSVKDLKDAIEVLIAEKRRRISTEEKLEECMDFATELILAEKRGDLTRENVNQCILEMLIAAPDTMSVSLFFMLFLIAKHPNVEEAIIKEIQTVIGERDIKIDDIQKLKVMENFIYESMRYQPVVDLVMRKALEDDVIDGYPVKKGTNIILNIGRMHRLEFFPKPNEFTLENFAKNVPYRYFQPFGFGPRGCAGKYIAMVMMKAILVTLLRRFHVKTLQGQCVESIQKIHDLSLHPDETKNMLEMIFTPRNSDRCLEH
pKi: −log10 of the molar value.
Reported pKi on the protein given by its sequence for assorted compounds, compiled from publications.
Could you label it t if measured pKi is 6 or higher, and f otherwise?

[[record]]
compound = "CC(=O)O[C@@H](c1ccccc1)[C@H](Cn1ccnn1)c1ccc(Br)cc1"
tested_on = "the protein given by its sequence"
label_value = "t"

[[record]]
compound = "COc1ccc(-c2nc(-c3cccnc3)cs2)cc1"
tested_on = "the protein given by its sequence"
label_value = "f"

[[record]]
compound = "CN1C(=O)CC(c2ccc(N)cc2)C1=O (stereo unspecified)"
tested_on = "the protein given by its sequence"
label_value = "f"

[[record]]
compound = "O=c1c(O)c(-c2ccccc2)oc2cc(O)cc(O)c12"
tested_on = "the protein given by its sequence"
label_value = "f"

[[record]]
compound = "COc1cc(-c2nc(-c3cccnc3)cs2)ccn1"
tested_on = "the protein given by its sequence"
label_value = "t"

[[record]]
compound = "O=c1c(-c2ccc(O)cc2)coc2cc(O)cc(O)c12"
tested_on = "the protein given by its sequence"
label_value = "f"

[[record]]
compound = "O=c1cc(-c2ccccc2)oc2c1ccc1ccc(O)cc12"
tested_on = "the protein given by its sequence"
label_value = "t"

[[record]]
compound = "CC(=O)O[C@@H](c1ccc(F)cc1)[C@H](Cn1ccnn1)c1ccccc1"
tested_on = "the protein given by its sequence"
label_value = "t"


====

Below are Ki values for Aromatase (Homo sapiens, UniProt P11511) collected from several publications.
RECORDED METRIC: Ki

[[record]]
compound = "COCO[C@@H](c1ccc(F)cc1)[C@@H](Cn1ccnn1)c1ccccc1"
result_value = "80 nM"

[[record]]
compound = "CCOc1ccc(-c2csc(-c3ccncc3)n2)cn1"
result_value = "100 nM"

[[record]]
compound = "Brc1ccc(/C=C(\\Cn2ccnn2)c2ccc(Br)cc2)cc1"
result_value = "24 nM"

[[record]]
compound = "CN1C(=O)CC(C)(c2ccc(N)cc2)C1=O (stereo unspecified)"
result_value = "1750 nM"

[[record]]
compound = "C[C@@]12CCCC1C1CCC3=CC(=O)C=C[C@]3(C)C1CC2 (stereo partly specified)"
result_value = "1100 nM"

[[record]]
compound = "COCO[C@@H](c1ccc(Br)cc1)[C@@H](Cn1ccnn1)c1ccccc1"
result_value = "20 nM"


====

Biological target: UniProt P11511
Sequence (P11511 whole entry): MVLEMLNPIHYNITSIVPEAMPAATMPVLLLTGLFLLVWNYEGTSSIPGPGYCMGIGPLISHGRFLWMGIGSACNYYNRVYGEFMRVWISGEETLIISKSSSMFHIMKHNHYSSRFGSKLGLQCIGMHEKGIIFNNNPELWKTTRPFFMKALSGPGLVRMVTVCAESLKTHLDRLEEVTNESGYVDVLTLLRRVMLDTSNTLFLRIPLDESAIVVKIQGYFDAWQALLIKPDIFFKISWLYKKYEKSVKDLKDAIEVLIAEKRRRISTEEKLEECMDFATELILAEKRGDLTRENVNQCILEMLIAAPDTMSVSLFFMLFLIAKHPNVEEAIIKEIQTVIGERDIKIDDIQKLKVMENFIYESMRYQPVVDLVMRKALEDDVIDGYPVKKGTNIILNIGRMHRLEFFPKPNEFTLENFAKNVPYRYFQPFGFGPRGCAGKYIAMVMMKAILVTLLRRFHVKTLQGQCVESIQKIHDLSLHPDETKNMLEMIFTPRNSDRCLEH
Several reports have described Ki for UniProt P11511; a selection of those results is presented here.
RECORDED METRIC: Ki

[[record]]
molecule = "Brc1cccc(-c2nc(-c3cccnc3)ns2)c1"
recorded_metric = "Ki"
result_value = "1160 nM"

[[record]]
molecule = "C[C@]12CCC(=O)C(O)=C1CCC1C2CC[C@]2(C)OC(=O)CCC12 (stereo partly drawn)"
recorded_metric = "Ki"
result_value = "660 nM"

[[record]]
molecule = "CC1(c2ccc(N)cc2)CC(=O)NC1=O (stereo not drawn)"
recorded_metric = "Ki"
result_value = "800 nM"

